- subjectOfTest: T1, P17-His protein (human CD40 antigen) (human, UniProt P25942 21-193, limits assumed)
- T1 construct: also called human CD40 antigen (P17-His)
- protocolDescription: BLI (Fortebio Octet RED96), antibody on Protein A sensor, P17-His 5-40 nM
attributeMeasured: kon (M⁻¹ s⁻¹)
Just the number please, in M⁻¹ s⁻¹, no unit attached.

Illustrative cases are given below, each with its answer.
C8-6 antibody (antibody, V domains shown) VH: EVQLLESGGGLVRPGGSLRLSCAASGFTFGSYEMNWVRQAPGKGLEWVSYISSSGETTDYADSVKGRFTVSRDNSKNLLYLQMNSLRAEDTAVYYCARDVFFFDSSGSPGAYGMDVWGQGTMVTVSS VL: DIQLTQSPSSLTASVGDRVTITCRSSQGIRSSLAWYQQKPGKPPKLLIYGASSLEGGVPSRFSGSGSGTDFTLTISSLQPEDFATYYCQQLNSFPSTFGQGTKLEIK = 1.09e+06
C8-9 antibody (antibody, V domains shown) VH: EVQLLESGGGLVRPGGSLRLSCAASGFTFGSYEMNWVRQAPGKGLEWVSYISSSGETTDYADSVKGRFTVSRDNSKNLLYLQMNSLRAEDTAVYYCARDVFFFDSSRPNGAYGMDVWGQGTMVTVSS VL: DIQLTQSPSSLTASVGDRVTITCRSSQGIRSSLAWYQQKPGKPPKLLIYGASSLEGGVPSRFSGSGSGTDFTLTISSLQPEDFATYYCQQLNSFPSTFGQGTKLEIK = 1.21e+06
C8 clone anti-CD40 full-length antibody (antibody, human IgG1, kappa, V domains shown, also called C8-WT; C8 parent antibody) VH: EVQLLESGGGLVRPGGSLRLSCAASGFTFGSYEMNWVRQAPGKGLEWVSYISSSGETTDYADSVKGRFTVSRDNSKNLLYLQMNSLRAEDTAVYYCARDVFFFDSSGDNGAYGMDVWGQGTMVTVSS VL: DIQLTQSPSSLTASVGDRVTITCRSSQGIRSSLAWYQQKPGKPPKLLIYGASSLEGGVPSRFSGSGSGTDFTLTISSLQPEDFATYYCQQLNSFPSTFGQGTKLEIKR = 853000
C8-4 antibody (antibody, V domains shown) VH: EVQLLESGGGLVRPGGSLRLSCAASGFTFGSYEMNWVRQAPGKGLEWVSYISSSGETTDYADSVKGRFTVSRDNSKNLLYLQMNSLRAEDTAVYYCARDVFFFDSSGPRGAYGMDVWGQGTMVTVSS VL: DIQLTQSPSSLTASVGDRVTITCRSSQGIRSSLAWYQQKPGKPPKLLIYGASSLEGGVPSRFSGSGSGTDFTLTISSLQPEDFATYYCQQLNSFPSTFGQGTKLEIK = 1.36e+06
C8-8 antibody (antibody, V domains shown) VH: EVQLLESGGGLVRPGGSLRLSCAASGFTFGSYEMNWVRQAPGKGLEWVSYISSSGETTDYADSVKGRFTVSRDNSKNLLYLQMNSLRAEDTAVYYCARDVFFFDSSGPPGAYGMDVWGQGTMVTVSS VL: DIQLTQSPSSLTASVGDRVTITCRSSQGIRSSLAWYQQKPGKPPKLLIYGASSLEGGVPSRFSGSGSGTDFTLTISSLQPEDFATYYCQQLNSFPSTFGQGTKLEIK = 1.07e+06

Consider now this further binder.
Lab book: kon of C8-1 antibody (antibody, V domains shown) VH: EVQLLESGGGLVRPGGSLRLSCAASGFTFGSYEMNWVRQAPGKGLEWVSYISSSGETTDYADSVKGRFTVSRDNSKNLLYLQMNSLRAEDTAVYYCARDVFFFDSSGDNGAYGMDVWGQGTMVTVSS VL: DIQLTQSPSSLTASVGDRVTITCRSSQGIRSSLAWYQQKPGKPPKLLIYGASSLEGGVPSRFSGSGSGTDFTLTISSLQPEDFATYYCQQLASFPSTFGQGTKLEIK noted as 1.16e+06
